Source: ChEMBL document CHEMBL1146694

Target: Melanocortin receptor 4 (Homo sapiens)
Sequence (P32245 whole entry): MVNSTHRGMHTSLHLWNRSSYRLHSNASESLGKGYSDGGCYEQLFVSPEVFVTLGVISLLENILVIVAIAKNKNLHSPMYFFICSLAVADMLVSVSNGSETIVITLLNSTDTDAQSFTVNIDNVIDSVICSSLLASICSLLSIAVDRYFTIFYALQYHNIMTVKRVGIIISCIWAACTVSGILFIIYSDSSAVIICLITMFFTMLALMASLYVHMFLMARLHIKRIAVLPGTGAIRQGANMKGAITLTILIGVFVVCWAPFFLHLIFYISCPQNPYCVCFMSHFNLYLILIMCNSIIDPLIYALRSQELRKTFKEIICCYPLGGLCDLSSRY
Assay: Binding affinity towards human melanocortin 4 receptor was determined using [125I]-NDP-alpha-MSH as radioligand transfected in HEK293 human embryonic kidney cells
Type: cell-based
Details: read-out: EC50
So basically: is binding affinity (radioligand displacement) under 100 nM? Then MET. Not under? Then NOT MET.

Task: Problem: For the molecule `CC(=O)N[C@@H](Cc1c[nH]cn1)C(=O)N[C@H](Cc1ccccc1)C(=O)N[C@@H](CCCN=C(N)N)C(=O)N[C@@H](Cc1c[nH]c2ccccc12)C(=O)Nc1ccc(C(=O)N[C@@H](Cc2c[nH]cn2)C(=O)N[C@H](Cc2ccccc2)C(=O)N[C@@H](CCCN=C(N)N)C(=O)N[C@@H](Cc2c[nH]c3ccccc23)C(N)=O)cc1` , is binding affinity (radioligand displacement) under 100 nM?
Result: MET

Task: Same question, `CC(=O)N[C@@H](Cc1c[nH]cn1)C(=O)N[C@H](Cc1ccccc1)C(=O)N[C@@H](CCCN=C(N)N)C(=O)N[C@@H](Cc1c[nH]c2ccccc12)C(=O)N1CCC[C@H]1C(=O)NCC(=O)N1CCC[C@H]1C(=O)N[C@@H](Cc1c[nH]cn1)C(=O)N[C@H](Cc1ccccc1)C(=O)N[C@@H](CCCN=C(N)N)C(=O)N[C@@H](Cc1c[nH]c2ccccc12)C(N)=O` this time
Result: MET

Task: # iterate: `CC(=O)N[C@@H](Cc1c[nH]cn1)C(=O)N[C@H](Cc1ccccc1)C(=O)N[C@@H](CCCN=C(N)N)C(=O)N[C@@H](Cc1c[nH]c2ccccc12)C(=O)NCCC(=O)NCC(=O)NCCC(=O)NCC(=O)NCCC(=O)N[C@@H](Cc1c[nH]cn1)C(=O)N[C@H](Cc1ccccc1)C(=O)N[C@@H](CCCN=C(N)N)C(=O)N[C@@H](Cc1c[nH]c2ccccc12)C(N)=O`
Result: NOT MET

Task: Try `CCCC[C@H](NC(C)=O)C(=O)N[C@@H](CCC(=O)O)C(=O)N[C@@H](Cc1cnc[nH]1)C(=O)N[C@H](Cc1ccccc1)C(=O)N[C@@H](CCCNC(=N)N)C(=O)N[C@@H](Cc1c[nH]c2ccccc12)C(=O)NCCC(=O)NCC(=O)NCCC(=O)N[C@@H](CCCC)C(=O)N[C@@H](CCC(=O)O)C(=O)N[C@@H](Cc1cnc[nH]1)C(=O)N[C@H](Cc1ccccc1)C(=O)N[C@@H](CCCNC(=N)N)C(=O)N[C@@H](Cc1c[nH]c2ccccc12)C(N)=O` next.
Result: MET

Task: Then `CC(=O)N[C@@H](Cc1c[nH]cn1)C(=O)N[C@H](Cc1ccccc1)C(=O)N[C@@H](CCCN=C(N)N)C(=O)N[C@@H](Cc1c[nH]c2ccccc12)C(=O)NCCC(=O)N[C@@H](Cc1c[nH]cn1)C(=O)N[C@H](Cc1ccccc1)C(=O)N[C@@H](CCCN=C(N)N)C(=O)N[C@@H](Cc1c[nH]c2ccccc12)C(N)=O` ?
Result: NOT MET

Task: Also `CC(=O)N[C@@H](Cc1c[nH]cn1)C(=O)N[C@H](Cc1ccccc1)C(=O)N[C@@H](CCCN=C(N)N)C(=O)N[C@@H](Cc1c[nH]c2ccccc12)C(=O)NCCC(=O)NCC(=O)NCCC(=O)NCC(=O)NCCC(=O)NCC(=O)NCCC(=O)N[C@@H](Cc1c[nH]cn1)C(=O)N[C@H](Cc1ccccc1)C(=O)N[C@@H](CCCN=C(N)N)C(=O)N[C@@H](Cc1c[nH]c2ccccc12)C(N)=O` ?
Result: NOT MET
